Attribute: Cmax
Assay: Pharmacokinetic (PK) experiment in rats
Format: in vivo
Conditions: male, SD, plasma, po; rat, intragastric 20 mg/kg
PROPERTY MEASURED: Cmax (ng/mL)

CC(=O)c1c(C)c2cnc(Nc3ccc(N4CCNCC4)cn3)nc2n(C2CCCC2)c1=O [PD-0332991, Palbociclib, reference compound]
213
CC(=O)c1c(C)c2cnc(Nc3ccc(C4CCN(CCCS(C)(=O)=O)CC4)cn3)nc2n(C2CCCC2)c1=O
860
CC(=O)c1c(C)c2cnc(Nc3ccc(C4CCN(CCS(C)(=O)=O)CC4)cn3)nc2n(C2CCCC2)c1=O
1450
